Reference for the values: patent US20110098322A1

Items are presented alongside their recorded pIC50.
molecular target: Recombinant human sEH (Homo sapiens, UniProt P34913); test: Inhibition of human soluble epoxide hydrolase (IC50 assay)
Sequence (P34913 whole entry): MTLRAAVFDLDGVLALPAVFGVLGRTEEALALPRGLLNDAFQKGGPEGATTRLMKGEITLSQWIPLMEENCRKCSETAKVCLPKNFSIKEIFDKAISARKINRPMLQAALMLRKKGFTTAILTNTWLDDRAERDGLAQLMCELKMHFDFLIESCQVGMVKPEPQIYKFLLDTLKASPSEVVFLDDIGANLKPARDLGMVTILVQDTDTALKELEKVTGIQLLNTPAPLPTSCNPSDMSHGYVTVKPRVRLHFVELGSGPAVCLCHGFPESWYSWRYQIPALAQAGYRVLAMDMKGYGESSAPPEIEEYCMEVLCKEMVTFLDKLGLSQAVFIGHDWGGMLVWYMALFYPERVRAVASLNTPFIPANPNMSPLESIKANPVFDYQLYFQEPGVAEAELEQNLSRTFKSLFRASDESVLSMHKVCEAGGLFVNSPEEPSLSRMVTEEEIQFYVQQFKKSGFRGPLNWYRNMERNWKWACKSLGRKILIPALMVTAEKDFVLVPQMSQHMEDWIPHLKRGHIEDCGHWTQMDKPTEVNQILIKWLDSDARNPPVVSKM
pIC50: −log10 of the molar value.
reported endpoint: pIC50

INSERT INTO measurements (compound, reported_endpoint, measured_number) VALUES
  ('CCOC(=O)c1cccc(NC(=O)NC(C)(C)c2cccc(C(C)C)c2)c1 [Compound 1717]', 'pIC50', 6.80),
  ('C=C(C)c1cccc(C(C)(C)NC(=O)N[C@H]2CC[C@H](O)CC2)c1 [Compound 1887]', 'pIC50', 7.12),
  ('C=C(C)c1cccc(C(C)(C)NC(=O)Nc2cccc(C(=O)OCC)c2)c1 [Compound 1716]', 'pIC50', 7.38),
  ('CC(C)c1cccc(C(C)(C)NC(=O)NCCCCCCCCCCCC(=O)O)c1 [Compound 1808]', 'pIC50', 7.28);

---

Biological target: Recombinant human sEH (Homo sapiens)
Test: Inhibition of human soluble epoxide hydrolase (IC50 assay)
Method: This example provides assays and illustrates the inhibition of human soluble epoxide hydrolases by compounds of the invention. Recombinant human sEH was produced in a baculovirus expression system and purified by affinity chromatography. […] Protein concentration was quantified by using the Pierce BCA assay using Fraction V bovine serum albumin as the calibrating standard. IC50 values were determined in one of three methods. […] Other IC50 values were determined using the procedure described in Analytical […]
IC50 less than 10 nM is YES; IC50 greater than or equal to 10 nM is NO.

INSERT INTO assay_data (molecule, class_name) VALUES
  ('CC(C)c1cccc(C(C)(C)NC(=O)NC2CCN(S(C)(=O)=O)CC2)c1', 'NO'),
  ('CC(C)c1cccc(C(C)(C)NC(=O)N[C@H]2CC[C@H](Oc3ccc(C(=O)O)cc3)CC2)c1', 'YES'),
  ('C=C(C)c1cccc(C(C)(C)NC(=O)NCCCCCCCCCCCC)c1', 'NO'),
  ('C=C(C)c1cccc(C(C)(C)NC(=O)Nc2cccc(C(=O)O)c2)c1', 'NO'),
  ('CC(C)c1cccc(C(C)(C)NC(=O)NC2CCN(C(=O)OC(C)(C)C)CC2)c1', 'NO'),
  ('CC(=O)N1CCC(NC(=O)NC(C)(C)c2cccc(C(C)C)c2)CC1', 'NO'),
  ('C=C(C)c1cccc(C(C)(C)NC(=O)NC2CCCCC2)c1', 'NO'),
  ('CC(C)c1cccc(C(C)(C)NC(=O)NC2CCCCC2)c1', 'YES'),
  ('CC(C)c1cccc(C(C)(C)NC(=O)NCC2CCN(C(=O)OC(C)(C)C)CC2)c1', 'YES'),
  ('CC(C)c1cccc(C(C)(C)NC(=O)NC2CCC(O)CC2)c1 (centres unmarked)', 'NO'),
  ('CC(C)c1cccc(C(C)(C)NC(=O)NCc2ccc(Oc3ccccc3)cc2)c1', 'NO'),
  ('CC(C)c1cccc(C(C)(C)NC(=O)Nc2cccc(C(=O)O)c2)c1', 'NO'),
  ('CC(C)c1cccc(C(C)(C)NC(=O)NCCCCc2ccccc2)c1', 'NO'),
  ('CC(C)c1cccc(C(C)(C)NC(=O)NC2CCC(C(=O)O)CC2)c1 (centres unmarked)', 'NO'),
  ('CC(C)c1cccc(C(C)(C)NC(=O)NCCc2ccc(C(=O)O)cc2)c1', 'NO'),
  ('CCCCCCCCCCCCNC(=O)NC(C)(C)c1cccc(C(C)C)c1', 'NO');
